meta.source: paper PMC2756145

Target: T1, Pot1-DBD_S123A (Schizosaccharomyces pombe, UniProt O13988 1-389, S123A)
T1 sequence: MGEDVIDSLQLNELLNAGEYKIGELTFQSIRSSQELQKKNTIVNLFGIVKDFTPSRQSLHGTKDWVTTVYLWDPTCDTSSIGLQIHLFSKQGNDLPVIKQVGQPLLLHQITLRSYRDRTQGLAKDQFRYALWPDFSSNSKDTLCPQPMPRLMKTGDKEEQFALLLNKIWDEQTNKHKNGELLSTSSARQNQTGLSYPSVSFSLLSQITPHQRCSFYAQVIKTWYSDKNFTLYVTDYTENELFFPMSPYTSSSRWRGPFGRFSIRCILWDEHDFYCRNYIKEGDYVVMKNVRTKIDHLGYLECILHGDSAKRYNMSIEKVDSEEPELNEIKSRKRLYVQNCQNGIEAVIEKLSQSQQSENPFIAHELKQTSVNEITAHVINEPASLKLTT
Assay: filter binding
pKd: −log10 of the molar value.
Measure name: pKd

1. GGTTACGGTTAC (ssDNA) [12mer] ... 7.52
